The reader will find reported abundance fitness values listed item by item below.
B1: CD2-associated protein, residues 109 to 169; numbered along this chain, Q9Y5K6 (parent)
chain: KKRQCKVLFEYIPQNEDELELKVGDIIDINEEVEEGWWSGTLNNKLGLFPSNFVKELEVTD

Variants of: B1
Assay: abundance fitness (aPCA) (normalised: wild type 0, dead -1); higher = more abundant; growth selection in yeast, the domain comes from the species named
Details: Homo sapiens
// response body must contain only the number

Worked cases, answers included:
V54R = -0.969
S39K = 0.166
W37P = -0.541
E31Y = -0.122
I26Q = -0.744
E56T = -0.033
G36A = -0.357
G47L = -0.922
K55H = -0.035
L48V = -0.067

Consider the variant `K45Q` and give its measured abundance fitness. 0.04

// repeat for `E31M` and report -0.26

// repeat for `L42I` and report -0.242

// repeat for `L46P` and report -0.196

// repeat for `E31R` and report 0.039

// repeat for `G40T` and report -1.02

// repeat for `L42H` and report -0.252

// repeat for `K45I` and report -0.433

// repeat for `E58R` and report -0.232

// repeat for `E34I` and report -0.247

// repeat for `E35Q` and report -0.153

// repeat for `W38C` and report -0.385

// repeat for `L46C` and report 0.127

// repeat for `E56H` and report -0.666

// repeat for `N43M` and report -0.144

// repeat for `F49D` and report -0.815

// repeat for `E31T` and report -0.087

// repeat for `W37I` and report -0.524
